Test system: SK-MEL-28
Assay Method Text: NCI tumour cell line growth inhibition, 48 h
Activity calls are given as the source filed them. Rule as the data show it: active = GI50 up to about 1.1 µM and inactive = higher.

Molecule	Study System	GI50
O=C1/C(=C/C=C/c2ccccc2)CCC1CNc1ccccc1 (stereo not drawn)	SK-MEL-28	44.6 µM (inactive)
COC1=CC(=O)[C@@]2(C)C(C)[C@H](c3ccccc3)[C@H]2C1=O (stereo partly drawn)	SK-MEL-28	> 100 µM (inactive)
C=C1CC/C=C(\C)C(=O)C[C@@H]2[C@@H]1CC2(C)C	SK-MEL-28	2.75 µM (inactive)
Cc1cc2nc(-c3c(F)cccc3F)n(Cc3c(F)cccc3F)c2cc1C	SK-MEL-28	16.6 µM (inactive)
C=C(CCC/C(C)=C/C=C/[C@@H](C)CCCc1ccoc1)C[C@@H]1OC(=O)[C@H](C)[C@@H]1O	SK-MEL-28	10.1 µM (inactive)
CC(C)=CCC/C(C)=C/COC(C)(C)C1=CCC(C)CC1.CC(C)=CCC/C(C)=C/COC1CC(C)CCC1=C(C)C (stereo not drawn)	SK-MEL-28	> 100 µM (inactive)
Nc1nc(Cl)cc(NCCCCCCCCNc2cc(Cl)nc(N)n2)n1	SK-MEL-28	31.8 µM (inactive)
O=C1/C(=C/c2cccs2)N=C(c2ccccc2)N1c1nc2ccccc2s1	SK-MEL-28	> 100 µM (inactive)

* * *

Tested on: SK-MEL-2
Assay Method Text: NCI tumour cell line growth inhibition, 48 h
Active and inactive are the calls of the source. No stated cut-off is given here; in the data, active = GI50 up to about 1.1 µM and inactive = higher. Where a SMILES comes first, the peptide text is derived from it. [ ]: non-standard residue; d: D form. The star is where a group is joined. Phe(4-NO2) = N[CH](Cc1ccc([N+](=O)[O-])cc1)C(=O)O; Boc = CC(C)(C)OC(=O)*
Measured GI50 by item

Molecule	GI50
COc1cc(C2C3=C(COC3=O)Oc3cc4c(cc32)OCO4)cc(OC)c1OC(C)=O (stereo not drawn)	37 µM (inactive)
CCOC(=O)C1=NOC2(C=C(Br)C(=O)C(Br)=C2)C1	6.84 µM (inactive)
CNC(Cc1ccccc1)c1cccc(OC)c1O (stereo not drawn)	> 100 µM (inactive)
Oc1[nH]c(NCc2ccc(Cl)cc2)nc2ncnc1-2	> 100 µM (inactive)
Cc1ccc(S(=O)(=O)N2CCCC2C(=O)O[C@H]2CC[C@H]3CC=C[C@H]32)cc1 (stereo partly drawn)	> 10 µM (inactive)
N#Cc1nc(C(O)c2ccccc2)oc1N (stereo not drawn)	> 100 µM (inactive)
O=C(O)CSCCc1ccccc1	> 100 µM (inactive)
NS(=O)(=O)c1ccc(NC2=CC(=O)C(=O)c3ccccc32)cc1	> 100 µM (inactive)
CCOC(=O)CCC(NC(=O)C(Cc1ccc([N+](=O)[O-])cc1)NC(=O)OC(C)(C)C)C(=O)NC(CCC(=O)OCC)C(=O)OCC (stereo not drawn) (Boc-[Phe(4-NO2)]-Glu(OEt)-Glu(OEt)-OEt; configuration not given here)	13.2 µM (inactive)
Nn1c(CCCCCCCCc2nnc(-c3c(O)ccc4ccccc34)n2N)nnc1-c1c(O)ccc2ccccc12	> 100 µM (inactive)
CC(C)C(=O)Cc1ccc2ccccc2n1	> 100 µM (inactive)
O=C1NC(NCc2ccc(F)cc2)=N/C1=C\c1ccccc1Cl	15.8 µM (inactive)
CCCOP(=S)(N1CC1)N1CC1	> 100 µM (inactive)
COc1cc2c(C)cc(O)cc2c2cc(O)c(C)cc12	14.8 µM (inactive)
C=C1C(=O)O[C@@H]2/C=C(\C)CC/C=C(/COC(C)=O)C[C@@H](OC(C)=O)[C@@H]12	16 µM (inactive)
CCOC(=O)c1cn(Cc2ccccc2)c(=O)n1Cc1ccccc1	> 100 µM (inactive)
O=[N+]([O-])c1ccc(/C=N/C23CC4CC(CC(C4)C2)C3)cc1	> 100 µM (inactive)
O=C(O)c1c([N+](=O)[O-])cc(C(F)(F)F)cc1[N+](=O)[O-]	> 100 µM (inactive)
Oc1ccc(-c2nc3cc(C(F)(F)F)ccc3n2CC2CCCN3CCCCC23)cc1 (stereo not drawn)	14.7 µM (inactive)
CC(C)CCNc1ncnc2[nH]ncc12	> 100 µM (inactive)
O=C(Nc1ccc(Cl)c(Cl)c1)C(=O)C(C(=O)c1ccccc1F)C1OC(=O)c2ccccc21 (stereo not drawn)	12.3 µM (inactive)
N=C1NC(=O)N2CC12 (stereo not drawn) [IMEXON]	> 100 µM (inactive)
CCOC(=O)C1=C(C)OC2(O)C=CC(O)=C3C(=O)N(c4ccccc4)C(=O)C312 (stereo not drawn)	30.5 µM (inactive)
CCOC(=O)C(=C(SC)SC)c1nn2c(=O)cc(C)nc2s1	20.1 µM (inactive)
COc1ccc2[nH]c3c(c2c1)CC(=O)N1CCC[C@H](C1)CC31OCCCO1	> 100 µM (inactive)
COc1ccc2c(c1)OC(c1ccccc1O)CC2=O (stereo not drawn)	26.6 µM (inactive)
COc1ccc2c(c1)C(=O)C1CC(=O)CCC21 (stereo not drawn)	> 100 µM (inactive)
S=C=NCCc1ccccc1 [PHENETHYLISOTHIOCYANATE]	0.402 µM (active)
